- Experimental System: Gonadotropin-releasing hormone receptor (Rattus norvegicus)
- Sequence (P30969 whole entry): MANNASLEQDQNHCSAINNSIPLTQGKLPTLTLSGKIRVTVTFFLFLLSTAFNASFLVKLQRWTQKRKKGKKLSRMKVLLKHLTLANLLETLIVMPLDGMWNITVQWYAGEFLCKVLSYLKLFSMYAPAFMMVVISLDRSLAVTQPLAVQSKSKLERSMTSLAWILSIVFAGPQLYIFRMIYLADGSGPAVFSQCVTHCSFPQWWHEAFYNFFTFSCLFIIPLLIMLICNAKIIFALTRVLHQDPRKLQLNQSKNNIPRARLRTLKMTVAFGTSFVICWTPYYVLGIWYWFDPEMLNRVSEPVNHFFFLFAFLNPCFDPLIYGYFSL
pKi: −log10 of the molar value.
Reported Property: pKi

I. CC(C)C[C@H](NC(=O)[C@@H](CCCCNC(=O)c1cccnc1)NC(=O)[C@H](Cc1ccc(O)cc1)N(C)C(=O)[C@H](CO)NC(=O)[C@H](Cc1cccc2ccccc12)NC(=O)CCc1ccc(F)cc1)C(=O)N[C@@H](CCCCNC(C)C)C(=O)N1CCC[C@@H]1C(N)=O
II. CCNC(=O)[C@H]1CCCN1C(=O)[C@H](CCCN=C(N)N)NC(=O)[C@H](CC(C)C)NC(=O)[C@@H](Cc1c[nH]c2ccccc12)NC(=O)[C@H](Cc1ccc(O)cc1)NC(=O)[C@H](CO)NC(=O)[C@H](Cc1c[nH]c2ccccc12)NC(=O)[C@@H](N)Cc1ccccc1
Inquiry: Of the pair I and II , name the member with the lesser recorded pKi. Return value: the label identifying the chosen record.
Reply text: II

Hello, the source for this data is BindingDB's records for doi:10.1021/jm00031a021, in case you need it.
